- target or test system: T1, HLA-A*01:01 (human)
- T1 construct: MHC class I monomer first loaded with a UV-sensitive peptide (not identified) that is cleaved by UV irradiation and exchanged for the tested peptide; captured on streptavidin plates, detected with anti-β2m; also called peptide-receptive MHC molecules
- method: UV-ligand exchange, anti-b2m ELISA

{"columns": ["binder", "peptide exchange yield"],
 "data": [
  ["FTDPHIITF", "> 75%"],
  ["RYLNIVHATQLY", "20 to 50%"],
  ["LSDPQAELQFY", "> 75%"],
  ["MMEMEGMY", "50 to 75%"],
  ["FYLSTPENYHY", "50 to 75%"],
  ["TQPELSSRY", "20 to 50%"],
  ["ASDVDTLLK", "50 to 75%"],
  ["SPAKQFNIY", "50 to 75%"]
]}
